Molecular target: recombinant human DAO (diamine oxidase) (Homo sapiens, UniProt P19801)
Construct: purchased R&D systems
Sequence (P19801 20-751): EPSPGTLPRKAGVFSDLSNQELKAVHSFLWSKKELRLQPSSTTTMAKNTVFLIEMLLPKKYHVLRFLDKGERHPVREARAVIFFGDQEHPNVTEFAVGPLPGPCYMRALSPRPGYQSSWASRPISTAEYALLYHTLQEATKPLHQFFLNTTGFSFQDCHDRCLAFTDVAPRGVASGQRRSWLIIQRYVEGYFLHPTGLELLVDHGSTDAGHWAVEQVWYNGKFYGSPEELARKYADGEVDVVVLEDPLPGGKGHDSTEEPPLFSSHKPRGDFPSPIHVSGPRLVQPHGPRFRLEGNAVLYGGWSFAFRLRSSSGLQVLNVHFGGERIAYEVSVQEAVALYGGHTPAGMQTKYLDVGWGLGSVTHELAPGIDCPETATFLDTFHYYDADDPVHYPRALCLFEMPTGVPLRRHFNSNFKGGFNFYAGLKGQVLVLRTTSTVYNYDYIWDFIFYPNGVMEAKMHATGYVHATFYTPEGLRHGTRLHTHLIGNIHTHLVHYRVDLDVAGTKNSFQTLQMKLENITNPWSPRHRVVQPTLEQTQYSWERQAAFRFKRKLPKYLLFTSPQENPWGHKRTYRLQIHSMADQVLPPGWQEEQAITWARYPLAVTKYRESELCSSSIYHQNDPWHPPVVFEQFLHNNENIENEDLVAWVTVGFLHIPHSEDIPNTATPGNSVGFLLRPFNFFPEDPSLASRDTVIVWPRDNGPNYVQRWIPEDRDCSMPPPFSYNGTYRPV
Experiment: Activity on recombinant human DAO, Amplex Red method, 1 mM putrescine substrate
Type: biochemical
Conditions: recombinant human DAO, 1 mM putrescine substrate; read-out: Inhibitory Activity (IC50, nM) DAO
Structures can show the parent of a compound that is named as a salt.
reported_property: IC50

The reported recombinant human DAO (diamine oxidase) (Homo sapiens, UniProt P19801) IC50 of NC/C(=C\F)Cn1ncn(-c2cccc(-c3ccc(-c4ccon4)cc3)n2)c1=O is < 30 nM

The reported recombinant human DAO (diamine oxidase) (Homo sapiens, UniProt P19801) IC50 of NC/C(=C\F)Cn1ncn(-c2cnc(-c3ccc(N4CCOCC4)nc3)cn2)c1=O is < 100 nM

The reported recombinant human DAO (diamine oxidase) (Homo sapiens, UniProt P19801) IC50 of CC(=O)Nc1nc(Cc2ccc(-n3cnn(C/C(=C/F)CN)c3=O)cc2)cs1 [Example 235, hydrochloride] is < 100 nM

The reported recombinant human DAO (diamine oxidase) (Homo sapiens, UniProt P19801) IC50 of NC/C(=C\F)Cn1ncn(-c2cc(-c3ccc(N4CCOCC4)nc3)ccn2)c1=O is < 30 nM

The reported recombinant human DAO (diamine oxidase) (Homo sapiens, UniProt P19801) IC50 of CC(=O)Nc1ccc(-c2cccc(-n3cnn(C/C(=C/F)CN)c3=O)n2)cc1 is < 30 nM

The reported recombinant human DAO (diamine oxidase) (Homo sapiens, UniProt P19801) IC50 of CS(=O)(=O)c1ccc(-c2cnc(-n3cnn(C/C(=C/F)CN)c3=O)cn2)cc1 is < 100 nM

The reported recombinant human DAO (diamine oxidase) (Homo sapiens, UniProt P19801) IC50 of CC(=O)Nc1cc(-c2ccnc(-n3cnn(C/C(=C/F)CN)c3=O)c2)ccn1 is < 30 nM

The reported recombinant human DAO (diamine oxidase) (Homo sapiens, UniProt P19801) IC50 of CC(C)c1nc(-c2ccc(-c3cc(-n4cnn(C/C(=C/F)CN)c4=O)ccn3)cc2)no1 [Example 205, hydrochloride] is < 10 nM

The reported recombinant human DAO (diamine oxidase) (Homo sapiens, UniProt P19801) IC50 of NC/C(=C\F)Cn1ncn(-c2ccnc(-c3ccc(N4CCOCC4)cc3)c2)c1=O [Example 207, hydrochloride] is < 10 nM

The reported recombinant human DAO (diamine oxidase) (Homo sapiens, UniProt P19801) IC50 of NC/C(=C\F)Cn1ncn(-c2cccc(-c3ccc(C(F)(F)F)nc3)n2)c1=O [Example 187, hydrochloride] is < 10 nM

The reported recombinant human DAO (diamine oxidase) (Homo sapiens, UniProt P19801) IC50 of NC/C(=C\F)Cn1ncn(-c2cccc(C#Cc3cccnc3)c2)c1=O [Example 243, hydrochloride] is 18 nM

The reported recombinant human DAO (diamine oxidase) (Homo sapiens, UniProt P19801) IC50 of CS(=O)(=O)c1ccc(-c2cnc(-n3cnn(C/C(=C\F)CN)c3=O)s2)cc1 [Example 226, hydrochloride] is < 100 nM

The reported recombinant human DAO (diamine oxidase) (Homo sapiens, UniProt P19801) IC50 of CN1CNc2cc(/C=C/c3cccc(-n4cnn(C/C(=C/F)CN)c4=O)n3)cnc21 [Example 240, hydrochloride] is 4 nM

The reported recombinant human DAO (diamine oxidase) (Homo sapiens, UniProt P19801) IC50 of CN1CCOc2cc(-c3cccc(-n4cnn(C/C(=C/F)CN)c4=O)n3)ccc21 [Example 202, hydrochloride] is 240 nM

The reported recombinant human DAO (diamine oxidase) (Homo sapiens, UniProt P19801) IC50 of Cc1cc(-c2cccc(-n3cnn(C/C(=C/F)CN)c3=O)n2)cc2c1NC(=O)CC2 [Example 197, hydrochloride] is 2.6 nM

The reported recombinant human DAO (diamine oxidase) (Homo sapiens, UniProt P19801) IC50 of CN(C)c1ncc(-c2cccc(-n3cnn(C/C(=C/F)CN)c3=O)n2)cc1F [Example 191, hydrochloride] is 19 nM

The reported recombinant human DAO (diamine oxidase) (Homo sapiens, UniProt P19801) IC50 of NC/C(=C\F)Cn1ncn(-c2ncc(-c3ccc4c(c3)OCO4)cc2F)c1=O [Example 162, hydrochloride] is 1.6 nM

The reported recombinant human DAO (diamine oxidase) (Homo sapiens, UniProt P19801) IC50 of Cc1cc(-c2ccc3nonc3c2)cnc1-n1cnn(C/C(=C/F)CN)c1=O [Example 152, hydrochloride] is 1300 nM

The reported recombinant human DAO (diamine oxidase) (Homo sapiens, UniProt P19801) IC50 of NC/C(=C/F)Cn1ncn(-c2ncc(-c3ccc4c(c3)OCO4)s2)c1=O [Example 232, hydrochloride] is < 100 nM

Source of measurements: patent US11492335B2
